Origin of measurements: the Immune Epitope Database (IEDB)

molecular target: HLA-B*18:01; experiment: IEDB peptide-MHC binding, purified MHC/competitive/fluorescence; filed as Kd, often an IC50 or EC50 that approximates it; bounds were set here for any values at or beyond the usual limits of such assays; conditions: source organism: Burkholderia pseudomallei 668
pKd: −log10 of the molar value.
RECORDED_ENDPOINT: pKd

Ask | Identify pKd associated with the sequence ILFDRLPIA
Reply | ≤ 4.70

====

target: HLA-B*51:01; experiment: IEDB peptide-MHC binding, purified MHC/competitive/radioactivity; filed as Kd, often an IC50 or EC50 that approximates it; bounds were set here for any values at or beyond the usual limits of such assays; settings: source organism: Lymphocytic choriomeningitis virus (strain WE)
RECORDED_ENDPOINT: pKd
Please express pKd as -log10 of the molar concentration.

Ask | Identify measured pKd associated with EPVESCPLM
Reply | 5.72

====

molecular target: HLA-A*01:01; experiment: IEDB peptide-MHC binding, purified MHC/direct/fluorescence; filed as Kd, often an IC50 or EC50 that approximates it; bounds were set here for any values at or beyond the usual limits of such assays; settings: source organism: Bacillus anthracis
RECORDED_ENDPOINT: pKd
pKd is a log-scale quantity: -log10 of the concentration expressed in molar.

Ask | For VTECKLIYY , write its pKd.
Reply | 8.15

====

molecular target: HLA-B*46:01; test: IEDB peptide-MHC binding, purified MHC/direct/fluorescence; filed as Kd, often an IC50 or EC50 that approximates it; bounds were set here for any values at or beyond the usual limits of such assays; conditions: source organism: Escherichia coli O157:H7
RECORDED_ENDPOINT: Kd

Ask | Let me know recorded Kd for ETIGLVRAL , thanks.
Reply | ≥ 20 µM

====

biological target: HLA-B*57:01; test: IEDB peptide-MHC binding, purified MHC/direct/fluorescence; filed as Kd, often an IC50 or EC50 that approximates it; bounds were set here for any values at or beyond the usual limits of such assays; conditions: source organism: Yellow fever virus
RECORDED_ENDPOINT: Kd

Ask | Provide Kd value for the following sequence: VNRWLFRHL
Reply | ≥ 20 µM

====

biological target: HLA-B*35:01; test: IEDB peptide-MHC binding, purified MHC/competitive/radioactivity; filed as Kd, often an IC50 or EC50 that approximates it; bounds were set here for any values at or beyond the usual limits of such assays; conditions: source organism: Mammarenavirus choriomeningitidis
RECORDED_ENDPOINT: pKd
Here pKd is given on a logarithmic scale as minus log10 of the concentration in mol/L.

Ask | Report measured pKd; entry is FATCGLFAL
Reply | 6.13

====

biological target: HLA-A*24:02; assay: IEDB peptide-MHC binding, purified MHC/competitive/radioactivity; filed as Kd, often an IC50 or EC50 that approximates it; bounds were set here for any values at or beyond the usual limits of such assays; conditions: source organism: Mammarenavirus tacaribeense
RECORDED_ENDPOINT: Kd (nM)
Quick reminder: number only, in nM, skip the unit.

Ask | Input SFYCDPKRFF , output reported Kd.
Reply | 1980

====

target: HLA-B*39:01; experiment: IEDB peptide-MHC binding, purified MHC/direct/fluorescence; filed as Kd, often an IC50 or EC50 that approximates it; bounds were set here for any values at or beyond the usual limits of such assays; details: source organism: Brucella suis 1330
RECORDED_ENDPOINT: Kd

Ask | Give me measured Kd, please, for this sequence: DPPEPLVRI
Reply | ≥ 20 µM

====

For each entry below, report its Kd value.
molecular target: HLA-A*11:01; assay: IEDB peptide-MHC binding, purified MHC/competitive/radioactivity; filed as Kd, often an IC50 or EC50 that approximates it; bounds were set here for any values at or beyond the usual limits of such assays; details: source organism: Vaccinia virus WR
Record the value in nM, omitting the unit from your answer.

Ask | Enter measured Kd, system HLA-A*11:01, for the sequence shown: TLSERISSK
Reply | 2.91

Ask | Given LLAISAVYFK , report its Kd on HLA-A*11:01.
Reply | 11.9

Ask | Please report Kd with HLA-A*11:01 for item HILHAYCGIK .
Reply | 1390

Ask | State Kd (HLA-A*11:01) of DITFLRPVLK .
Reply | 72.1

Ask | Look up and report Kd, with HLA-A*11:01 as system, for RVMANNVKK
Reply | 16.7

Ask | Report measured Kd on HLA-A*11:01; entry: PLHILASNK
Reply | 6420

Ask | State Kd on HLA-A*11:01. Entry: RLNNPVILSK
Reply | 11.9

Ask | Please report the measured Kd for MLIFNVKSK tested on HLA-A*11:01.
Reply | 491

Ask | Give Kd for this entry on HLA-A*11:01: RSDGYFLKIK
Reply | 1560

Ask | Output reported Kd of the sequence LLSIVVDINK on HLA-A*11:01.
Reply | 35.9

Ask | Answer with Kd of KATTQIAPK measured for HLA-A*11:01.
Reply | 4.81

Ask | Report value: Kd, system: HLA-A*11:01, sequence: TSVSAKQLR
Reply | 2810

Ask | Give HLA-A*11:01 Kd for the following sequence: SIRPRVTKQY
Reply | 9160

Ask | Write down the reported Kd (system: HLA-A*11:01) of TLNHVLALK
Reply | 1.28

Ask | Under HLA-A*11:01: report Kd of FFAYVMNIER .
Reply | 10800

Ask | Give reported Kd for ILRNYLRLY (HLA-A*11:01)
Reply | 4540

Ask | State, for HLA-A*11:01, measured Kd of the sequence listed here: HAKYMVTDK
Reply | 5810

Ask | Give Kd only, for YSSMTSDSK , using HLA-A*11:01 data.
Reply | 10.5

====

biological target: HLA-B*57:01; test: IEDB peptide-MHC binding, purified MHC/competitive/radioactivity; filed as Kd, often an IC50 or EC50 that approximates it; bounds were set here for any values at or beyond the usual limits of such assays; conditions: source organism: Dengue virus 4 Philippines/H241/1956
I'd appreciate it if you could supply Kd values for the items below.
Give the number; µM is assumed, so skip it.

Ask | Give Kd for VTMTLWYMW
Reply | 0.00752

Ask | Look up and state reported Kd for PSSVAARGYI
Reply | 16.4

====

target: HLA-A*11:01; assay: IEDB peptide-MHC binding, purified MHC/competitive/fluorescence; bounds were set here for any values at or beyond the usual limits of such assays; conditions: source organism: Zaire ebolavirus
RECORDED_ENDPOINT: IC50 (µM)
The reply should be a number in µM, with the unit left off.

Ask | Give reported IC50 value for AITAASLPK
Reply | 0.368

Ask | Quick one: give measured IC50 for MMVIFRLMR
Reply | 0.0455

Ask | Determine its reported IC50: ILFQRTFSI
Reply | 42.8

====

target: HLA-A*11:01; experiment: IEDB peptide-MHC binding, purified MHC/competitive/radioactivity; filed as Kd, often an IC50 or EC50 that approximates it; bounds were set here for any values at or beyond the usual limits of such assays; details: source organism: Dengue virus 1 Brazil/97-11/1997
So I've got a bunch of sequences here, and I need their Kd values.
Please answer in the form of a number followed by its unit of measurement.

Ask | In one line, give reported Kd of the entry TTIFAGHLK .
Reply | 30.7 nM

Ask | Give recorded Kd. QVIAVEPGK
Reply | 781 nM

Ask | Give me measured Kd, please, for this sequence: RQDLLVTFK
Reply | 197 nM

====

biological target: HLA-B*27:05; test: IEDB peptide-MHC binding, purified MHC/direct/fluorescence; filed as Kd, often an IC50 or EC50 that approximates it; bounds were set here for any values at or beyond the usual limits of such assays; conditions: source organism: Influenza A virus (A/Hong Kong/507/97(H5N1))
pKd: −log10 of the molar value.
RECORDED_ENDPOINT: pKd

Ask | State, in one line, measured pKd of KSCLPACVY
Reply | ≤ 4.70

====

Assign pKd to each entry below.
target: HLA-B*48:01; assay: IEDB peptide-MHC binding, purified MHC/direct/fluorescence; filed as Kd, often an IC50 or EC50 that approximates it; bounds were set here for any values at or beyond the usual limits of such assays; conditions: source organism: West Nile virus
pKd: −log10 of the molar value.

Ask | Given YCPGTTVTL , respond with its pKd.
Reply | ≤ 4.70

Ask | Give me measured pKd, please, for this sequence: KIRNRIERL
Reply | ≤ 4.70

Ask | Consider the sequence LRWLVERRF and give its recorded pKd.
Reply | ≤ 4.70

====

molecular target: HLA-B*44:03; experiment: IEDB peptide-MHC binding, purified MHC/competitive/radioactivity; filed as Kd, often an IC50 or EC50 that approximates it; bounds were set here for any values at or beyond the usual limits of such assays; conditions: source organism: Lymphocytic choriomeningitis virus (strain Armstrong)
RECORDED_ENDPOINT: pKd
pKd here: minus log base 10 of the concentration, concentration in moles per litre.

Ask | Enter pKd (test system HLA-B*44:03) for ADNMITEML
Reply | 4.75
